system: ATP; test: switch fluorescence ratio, 500 uM ATP over buffer (Cy3 cluster intensity, sum of 5 cycles each) (fold (ratio)); higher = stronger signal-on switching upon ATP binding; sequences stand for … in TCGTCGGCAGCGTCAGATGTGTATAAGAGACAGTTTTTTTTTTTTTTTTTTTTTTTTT…TC; details: aptamer strand: ATP DNA aptamer (quencher-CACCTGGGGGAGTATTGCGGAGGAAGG + anchor), 100 nM annealed; ATP concentration: 500 uM;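 also: ATP exposure 15 min at 22 °C before imaging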
For each record, write down the corresponding switch fluorescence ratio.
One number for each entry.

Consider the worked cases shown below.
> print(dat)
   sequence.entry  tested.system          reported.endpoint  readout.value
1      AGATGTGTGG            ATP  switch fluorescence ratio          0.989
2      GGGAGGCCGG            ATP  switch fluorescence ratio              1

Kindly give each listed record's switch fluorescence ratio.
1. TCGGGGCTGG
2. CTTCGTGCAT
3. CGTGAAAGCA
4. TCATTAAGGG

Outgoing:
[1.02, 1.23, 1.02, 0.991]

###

For each record, write down the corresponding switch fluorescence ratio.
tested on: ATP; assay: switch fluorescence ratio, 500 uM ATP over buffer (Cy3 cluster intensity, sum of 5 cycles each) (fold (ratio)); higher = stronger signal-on switching upon ATP binding; sequences stand for … in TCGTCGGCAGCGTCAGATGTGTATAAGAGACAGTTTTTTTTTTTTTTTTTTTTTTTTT…TC; details: aptamer strand: ATP DNA aptamer (quencher-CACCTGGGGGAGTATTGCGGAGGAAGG + anchor), 100 nM annealed; ATP concentration: 500 uM;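 also: ATP exposure 15 min at 22 °C before imaging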
Numbers only.

> print(dat)
   sequence.entry  readout.value
1      TAAGATAAAT              1

Kindly give each listed record's switch fluorescence ratio.
1. GTCAGGGCGA
2. GGAGTTGGGA
3. GTTCTAGGTT
4. ATTTATTGGC
5. TGGTTGAGTT
6. CAGGGTGAAC
7. CTTGTTTTGT

Outgoing:
1: 0.993; 2: 1.02; 3: 0.996; 4: 1.02; 5: 0.973; 6: 1.02; 7: 1.02

Kindly give each listed record's switch fluorescence ratio.
1. CAATGGGGGC
2. GGTCACGGGT
3. TTTAAAAGAA
4. ATGGGCGTGG

Outgoing:
[1.02, 0.981, 0.995, 1]

Kindly give each listed record's switch fluorescence ratio.
1. TATGGTTTGG
2. TTCTGTTTCT
3. TTTTGTGAGT
4. GATAAAGACG
5. ACAGTAGTTA
6. TTTAAATCTC

Outgoing:
1. 0.987
2. 0.995
3. 1.01
4. 0.989
5. 1.05
6. 0.963

Kindly give each listed record's switch fluorescence ratio.
1. GCACTCAGGA
2. AGGTAATGCA

Outgoing:
1.03
1.01

###

For each record, write down the corresponding switch fluorescence ratio.
system: ATP; test: switch fluorescence ratio, 500 uM ATP over buffer (Cy3 cluster intensity, sum of 5 cycles each) (fold (ratio)); higher = stronger signal-on switching upon ATP binding; sequences stand for … in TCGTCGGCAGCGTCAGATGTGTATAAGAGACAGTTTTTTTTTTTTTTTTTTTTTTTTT…TC; conditions: aptamer strand: ATP DNA aptamer (quencher-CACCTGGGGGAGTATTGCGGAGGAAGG + anchor), 100 nM annealed; ATP concentration: 500 uM;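 also: ATP exposure 15 min at 22 °C before imaging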
One number for each entry.

Consider the worked cases shown below.
> print(dat)
   sequence.entry  tested.system  readout.value
1      GATAGTTGGG            ATP          0.988
2      GATGCCGGGA            ATP           1.02
3      AAAAGCTTAT            ATP           1.05
4      TCGACATGGT            ATP          0.995
5      CGTCAGCACT            ATP           1.79

Kindly give each listed record's switch fluorescence ratio.
1. AGTAGCATTC
2. TAACGCCATC
3. AGCGGTTTTC
4. TCAGAATCTA
5. TTAGGGCCGA

Outgoing:
[1.72, 1.51, 0.994, 1, 1]

Kindly give each listed record's switch fluorescence ratio.
1. GACGATTGTG
2. GCTCAAAGTT
3. TTGTTTTGAA
4. TTTAGACCCT

Outgoing:
1: 0.991; 2: 0.99; 3: 1.01; 4: 1.01

Kindly give each listed record's switch fluorescence ratio.
1. TTTTTTTGAC
2. GCGGAAGGG
3. AAATGCAGCT
4. ACTCGGGGGG
5. GAGCTTACTT

Outgoing:
1. 1.01
2. 0.996
3. 0.977
4. 0.991
5. 1.1

###

For each record, write down the corresponding switch fluorescence ratio.
test system: ATP; experiment: switch fluorescence ratio, 500 uM ATP over buffer (Cy3 cluster intensity, sum of 5 cycles each) (fold (ratio)); higher = stronger signal-on switching upon ATP binding; sequences stand for … in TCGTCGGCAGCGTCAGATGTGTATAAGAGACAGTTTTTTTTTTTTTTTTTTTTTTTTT…TC; conditions: aptamer strand: ATP DNA aptamer (quencher-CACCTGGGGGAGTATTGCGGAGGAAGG + anchor), 100 nM annealed; ATP concentration: 500 uM;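 also: ATP exposure 15 min at 22 °C before imaging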
Numbers only.

Kindly give each listed record's switch fluorescence ratio.
1. TAGCGGGAGG
2. AAGTTTAGTG
3. AGTGGTTTTT
4. GTGTTTGGCT
5. AGGGGGGAGA
6. AAGGTGAAGG
7. TATAATATTT

Outgoing:
[1.02, 0.976, 0.995, 0.972, 0.994, 1.02, 1]

###

test system: ATP; assay: switch fluorescence ratio, 500 uM ATP over buffer (Cy3 cluster intensity, sum of 5 cycles each) (fold (ratio)); higher = stronger signal-on switching upon ATP binding; sequences stand for … in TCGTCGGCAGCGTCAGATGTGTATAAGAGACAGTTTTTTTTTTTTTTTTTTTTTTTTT…TC; details: aptamer strand: ATP DNA aptamer (quencher-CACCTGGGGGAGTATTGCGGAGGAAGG + anchor), 100 nM annealed; ATP concentration: 500 uM;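 also: ATP exposure 15 min at 22 °C before imaging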
For each record, write down the corresponding switch fluorescence ratio.
Numbers only.

Consider the worked cases shown below.
> print(dat)
   sequence.entry  tested.system  readout.value
1      TATATATCTC            ATP          0.992
2      GTTACTGGCC            ATP           1.01
3      AATGTAAATA            ATP           1.01
4      CGATATATTA            ATP          0.987
5      TTAGGTTCTC            ATP          0.991
6      CAGCAGGCGG            ATP           1.01

Kindly give each listed record's switch fluorescence ratio.
1. AATTGCGGCC
2. ATGGTTTGGG
3. ATCTGATGTC

Outgoing:
1: 0.979; 2: 0.99; 3: 0.978

Kindly give each listed record's switch fluorescence ratio.
1. GTTATCGAGG
2. TTGCGCTACG
3. GGTGGAGCGG
4. GACGGGCCGG
5. TGTTTTTAGA
6. GAAAAAAAGA

Outgoing:
[1.02, 1.01, 1, 1.01, 1.01, 1]

###

tested on: ATP; assay: switch fluorescence ratio, 500 uM ATP over buffer (Cy3 cluster intensity, sum of 5 cycles each) (fold (ratio)); higher = stronger signal-on switching upon ATP binding; sequences stand for … in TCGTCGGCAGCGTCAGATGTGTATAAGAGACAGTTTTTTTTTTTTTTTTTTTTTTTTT…TC; conditions: aptamer strand: ATP DNA aptamer (quencher-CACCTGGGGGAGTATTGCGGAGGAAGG + anchor), 100 nM annealed; ATP concentration: 500 uM;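 also: ATP exposure 15 min at 22 °C before imaging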
REPORTED ENDPOINT: switch fluorescence ratio
Answers are plain numbers.

Consider the worked cases shown below.
> print(dat)
   sequence.entry          reported.endpoint  readout.value
1      AGGGCACGGT  switch fluorescence ratio          0.983
2      ATAATGTTGT  switch fluorescence ratio          0.991
3      GCTCGGGGTC  switch fluorescence ratio          0.978
4      AGGGGTACAT  switch fluorescence ratio           1.01
5      GGTCCAGGGC  switch fluorescence ratio           1.08
6      GCTGTTGTTG  switch fluorescence ratio          0.992
7      GTGGTATGTG  switch fluorescence ratio           0.95
8      GTGTGTGTAA  switch fluorescence ratio           1.01

Kindly give each listed record's switch fluorescence ratio.
1. GGGGGGCAAT
2. ACATTAAGTA
3. AAGTAATTGT

Outgoing:
1. 1.2
2. 1.02
3. 1.01
